Tested on: HT29 colon
Test: NCI-60 one-dose screen, 48 h
Details: 10 µM unless noted
Compounds without any hit were thinned out: in the full panel of roughly 83,000, 20% have a hit. Calls of active or inactive are those of the source. The calls were made as follows: active = growth percent below 10; inactive = the rest.
Please answer using one outcome listed in T for active, F for inactive

Q: # outcome recorded in this test, key = COc1cc2c(cc1-c1c(C)noc1C)ncc1nc(C3CCCCC3)n([C@@H](C)COC(F)F)c12
Ans: F

Q: How did this test come out for C/C(Cc1ccc(Cl)cc1)=C(/c1ccc(Cl)cc1)c1ccc(OCCN2CCCC2)cc1 ?
Ans: F

Q: What was the test verdict on Cc1ccc(Cc2cnc(NC(=O)/C=C/c3cccc(C)c3)s2)cc1 ?
Ans: T

Q: For C#Cc1cccc(NC(=O)C2CCCN(C(=O)CCl)C2)c1 (stereo not given) , what call appears in the results of this test?
Ans: F

Q: Called result for COc1cc(/C=C2\C(=O)N(CC(O)COc3cc(O)c4c(=O)cc(-c5ccccc5)oc4c3)c3ccccc32)cc(OC)c1O (stereo not given)
Ans: F

Q: Please share the test call associated with COc1cc(-c2c(C#N)c(-c3cccs3)nc3c2c(-c2ccccc2)nn3-c2ccccc2)ccc1O .
Ans: F

Q: Short answer needed: outcome of this test for COc1ccc2[nH]cc(-c3nc(-c4c[nH]c5ncccc45)cs3)c2c1 ?
Ans: F

Q: I would be grateful if you could indicate the recorded call for Cn1nc(-c2ccccc2)c2c(-c3ccccc3)onc2c1=O .
Ans: T

Q: Each compound tested received a call. Report the one for Nc1c2c(nc3ccc(Cl)cc13)CC(c1ccc(O)cc1)CC2=O (stereo not given) .
Ans: F

Q: Entry N=C(N)c1ccc(-c2ccc(-c3cc(F)cc(F)c3)o2)nc1 : call = ?
Ans: F

###

Test system: K-562 leukemia
Assay: NCI-60 one-dose screen, 48 h
Conditions: 10 µM unless noted
Experimental: Cells are grown in 96 well plates and exposed to the test compound for 48 hours. Compounds are tested at a single concentration, which is 10^-5 M for most compounds. The reported endpoint is percent growth (GI% or GIPRCNT), where numbers from 0 - 100% represent growth inhibition, and numbers from -100% - 0 represent cell death. For example, a value of 40 represents 60% growth inhibition. A value of 0 means no net growth occurred over the course of the experiment. […]
Compounds without any hit were thinned out: in the full panel of roughly 83,000, 20% have a hit. The source made the active and inactive calls. Rule for the calls: active = growth percent below 10; inactive = the rest.
Allowed answers: active, inactive

Q: State the result this test recorded for O=C(CI)Nc1ccc(O)c2ccccc12 .
Ans: active

Q: Which outcome was entered for the compound Cc1c(C)c2c(c(C)c1NC(=O)CCCCCCC(=O)O)CCC(C)(CCCC(C)CCCC(C)CCCC(C)C)O2 (centres undefined) in this test?
Ans: inactive

Q: Identify the outcome logged in this assay for the compound shown: COc1cccc(-c2nn(-c3ccccc3)cc2-c2ccnc(NCCCNS(=O)(=O)c3ccc(C(F)(F)F)cc3)c2)c1
Ans: active

Q: Record lookup: outcome of this test for Cc1cc(N(CCCNc2ccnc3cc(Cl)ccc23)Cc2ccco2)nc(N2CCN(C)CC2)n1 ?
Ans: inactive

Q: Each compound tested received a call. Report the one for O=C(O)c1cccc2c1C(=O)N(c1ccc3c(c1)Cc1ccccc1-3)C2=O .
Ans: inactive

Q: # lookup: test call for O=C1CN(c2ccccc2)C(=O)C1C(=O)Nc1ccc(Cl)c(Cl)c1 (centres undefined)
Ans: inactive

Q: Kindly provide the recorded test outcome for the following compound: O=C1c2cccc3cccc(c23)C(=O)N1CC#Cc1ccc2c3c(cccc13)C(=O)N(CCN1CCNCC1)C2=O
Ans: active

Q: In this assay, the call recorded for CC(C)C[C@@H](NC(=O)[C@@H](Cc1ccccc1)NC(=O)c1cnccn1)B1O[C@H]2[C@H](O)[C@@H](C(=O)NCCCC[C@@H]3NC(=O)[C@@H](Cc4ccccc4)NC(=O)[C@H](CC(=O)O)NC(=O)CNC(=O)[C@H](CCCN=C(N)N)NC3=O)O[C@@H](CN)[C@H]2O1 was what?
Ans: active

Q: Outcome? COc1ccc(C2NC(=O)Nc3ccccc32)c(OC)c1 (centres undefined)
Ans: inactive

###

Tested on: SNB-19 CNS
Assay: NCI-60 one-dose screen, 48 h (100 = growth as untreated, 0 = no growth, -100 = all killed)
Conditions: 10 µM unless noted
Compounds without any hit were thinned out: in the full panel of roughly 83,000, 20% have a hit. Calls of active or inactive are those of the source. Rule for the calls: active = growth percent below 10; inactive = the rest.
Record form. Attribute: growth. Fill in for each entry.

Q: Look up growth: Cc1ccc(C)c2c1CCC2C(C)C (stereo not given)
Ans: 101% (inactive)

Q: What value of growth has been reported for the following molecule? CCCCC(=O)OC1CCCCC1C (stereo not given)
Ans: 100% (inactive)

Q: Quick one: growth for CC(=O)O[C@H]1CC[C@]2(C)[C@H]3CC=C4[C@@H]5[C@H](C)[C@@H](C)CC[C@]5(C(=O)NCCNCCNCCN)CC[C@@]4(C)[C@]3(C)CC[C@H]2C1(C)C ?
Ans: 82.6% (inactive)

Q: Name the recorded growth for COc1ccc(/C(=C\c2ccc3c(c2)OCO3)C(=O)Nc2nc3ccccc3s2)cc1OC .
Ans: 101% (inactive)

Q: Could you tell me which growth is on file for Cc1cc(Cl)nc(N(CCCNc2ccnc3cc(Cl)ccc23)Cc2ccco2)n1 ?
Ans: 31.5% (inactive)

Q: Look up growth for this molecule: COc1cc2ncnc(Nc3ccc(Oc4ccnc(C)c4)c(C)c3)c2cc1NC(=O)CC1CCSS1 (stereo not given)
Ans: -32.2% (active)

Q: I have this molecule here, CC/C(=N/NC(N)=O)c1ccccc1 , and I need its recorded growth.
Ans: 108% (inactive)

Q: What value of growth has been recorded for this entry: C(=C\c1c[nH]c2ccccc12)/c1ccc2ccccc2n1
Ans: 84.4% (inactive)

Q: Would you mind telling me what growth value was observed for C=C(C)[C@@H]1CC[C@]2(C)CC[C@]3(C)[C@H](CC[C@@H]4[C@@]5(C)CCCNC(C)(C)[C@@H]5CC[C@]43C)[C@@H]12 ?
Ans: 96.3% (inactive)

Q: Any idea what its growth is? The molecule is C=C(C)[C@@H]1CC[C@]2(C(=O)O)CC[C@]3(C)[C@H](CC[C@@H]4[C@@]5(C)C/C(=C/c6cccc(I)c6)C(=O)C(C)(C)[C@@H]5CC[C@]43C)[C@@H]12
Ans: 38% (inactive)

Q: Look up growth: NCCn1cc(-c2nc(-c3c[nH]c4ncccc34)cs2)c2cc(Br)ccc21
Ans: 79.3% (inactive)

Q: Return reported growth; argument: N#Cc1c(-c2ccc(O)cc2)c2c(N)nn(-c3ccccc3)c2[nH]c1=O
Ans: 99.8% (inactive)

Q: // lookup growth for COc1cccc(-c2nn(-c3ccccc3)cc2-c2ccnc(NCCCO)c2)c1
Ans: 36.3% (inactive)

Q: Could you share which growth value was measured for Cc1nnc2nc(N)[nH]n2c1=O ?
Ans: 117% (inactive)

Q: Recorded growth of CC1(C)CC[C@]2(C(=O)NCCNCCN)CC[C@]3(C)C(=CC[C@@H]4[C@@]5(C)CCC(=O)C(C)(C)[C@@H]5CC[C@]43C)[C@@H]2C1 , please.
Ans: 56.1% (inactive)

Q: Dear colleague, I am looking for the recorded growth of the following molecule: Clc1ccc2[nH]cc(-c3nc(-c4c[nH]c5ncccc45)cs3)c2c1
Ans: 65.1% (inactive)

Q: Field request: growth | item: O=C(NC1=CC(=O)c2ccccc2C1=O)c1ccccc1
Ans: 36.3% (inactive)

Q: Bench note: what growth did NC1(N)C=CC2=C(C=C1)C1(N)C3=C(C=CC(N)(N)C=C3)N2C2(N)C3=C(C=CC(N)(N)C=C3)N1C1=C2C=CC(N)(N)C=C1 show?
Ans: 101% (inactive)

Q: Given the entry Cn1c2c(Cl)c(Cl)ccc2c2c(C#N)c[nH]c(=O)c21 , report its measured growth.
Ans: 97.3% (inactive)

Q: Please report the recorded growth for COc1c(N)c2c(c([N+](=O)[O-])c1OC)C(=O)OC2 .
Ans: 102% (inactive)

###

Tested on: MCF7 breast
Assay: NCI-60 one-dose screen, 48 h (100 = growth as untreated, 0 = no growth, -100 = all killed)
Conditions: 10 µM unless noted
Compounds without any hit were thinned out: in the full panel of roughly 83,000, 20% have a hit.
readout.label: growth (%)
Your answer should be a plain number; it is taken to be in %.

Q: Recorded growth of O=C(/C=C/c1ccc2ccccc2c1)Nc1ncc(Cc2ccccc2)s1 , please.
Ans: 50.3

Q: Please give the measured growth for this compound: O=C(O)/C(=C/c1ccc(O)cc1)c1ccccc1
Ans: 98

Q: Tell me the measured growth of COc1cccc(NC(=O)c2sc3nc4c(cc3c2N)C(=O)CCC4)c1 , please.
Ans: 29.4

Q: Please report the recorded growth for COc1cccc(-c2nn(-c3ccccc3)cc2-c2ccnc(NCCNS(=O)(=O)c3ccc(C(F)(F)F)cc3)c2)c1 .
Ans: 11.1

Q: // query growth value for entry Brc1cnc2[nH]cc(-c3nnc(-c4ccccc4)o3)c2c1
Ans: 63.6

Q: Recorded growth for Cn1c2c(Cl)c(Cl)ccc2c2c(C#N)c[nH]c(=O)c21 , please?
Ans: 96.5

Q: Could you tell me which growth is on file for OCC(CO)(CCl)CCl ?
Ans: 94.2

Q: Request the reported growth associated with Nc1nc(N)c2nc3c(nc2n1)CCCCCCCCCC3
Ans: 46.2

Q: Form field: reported growth of COc1cc2c(cc1-c1c(C)noc1C)ncc1nc(C3CCCCC3)n([C@@H](C)COC(F)F)c12
Ans: 12.1

Q: I am curious: what growth value has been reported for Cn1cc(-c2csc(-c3cn(CCCN4CCCCC4)c4ccccc34)n2)c2cccnc21 ?
Ans: -77.2

Q: Look up growth: COC(=O)[C@]12CC[C@@H](C(C)=O)[C@@H]1[C@H]1CC[C@@H]3[C@@]4(C)C/C(=C/c5cccnc5)C(=O)C(C)(C)[C@@H]4CC[C@@]3(C)[C@]1(C)CC2
Ans: 19.2

Q: Please report the recorded growth for CCCC1CCCCN1C(=O)OCC(C)C (stereo unspecified) .
Ans: 100

Q: Find the recorded growth belonging to Cc1ccc(-c2nc([P+](c3ccccc3)(c3ccccc3)c3ccccc3)c(N3CCOCC3)o2)cc1 and report it.
Ans: 2.74

Q: Given the entry CCOC(=O)C/C(=C\c1ccccc1)C(C)=O , report its measured growth.
Ans: 101

Q: Quick check: growth of Cc1cc2nc3c4cc(N)ccc4n(CCN(C)C)c3nc2cc1C ?
Ans: -19.6

Q: What does the data say about its growth? Entry: COc1cc2nc(Cl)nc(Nc3cccc(C(=O)/C=C/c4ccccc4)c3)c2cc1OC
Ans: 12.3

Q: Which growth is reported for this compound? Cc1ccc(-c2nn(Cc3cn(-c4cc(C)nc5ccccc45)nn3)c3ncnc(N)c23)cc1
Ans: 34.6

Q: // query growth value for entry Nc1c2c(nc3ccc(Cl)cc13)CC(c1ccccc1)CC2=O (stereo unspecified)
Ans: 19

Q: What does the data say about its growth? Entry: COc1ccc(C2C(C#N)=C(N)Oc3c2sc2c(F)cccc32)cc1 (stereo unspecified)
Ans: 15.4

Q: For the compound shown here, Cc1cc(N(CCCNc2ccnc3cc(Cl)ccc23)Cc2ccco2)nc(Cl)n1 , give the reported growth.
Ans: 42.4

Q: Query (compound): CCCCCCCC(=O)SCC/C=C/[C@@H]1CC(=O)NCc2cccc(n2)CN(Cc2ccc(Cl)cc2)CC(=O)N[C@@H](C(C)C)C(=O)O1 ; field requested: growth
Ans: 9.09

Ref: PubChem BioAssay (NCI)
